Cited source: patent US20090131470A1

Assay system GST-Chk1 enzyme (Homo sapiens, UniProt O14757); read-out recorded as IC50.
Quick reminder: number only, in nM, skip the unit.

Please review the following examples before continuing.
Query string: Note IC50 for the molecule shown: "Cc1[nH]nc(-c2nc3cc(-c4cccc5c4CCO5)ccc3[nH]2)c1C(=O)NC1CCNCC1"
Result string: 15

Query string: Note IC50 for the molecule shown: "COCCNC(=O)c1ccc2nc(-c3n[nH]c(C)c3C(=O)NC3CCNCC3)[nH]c2c1"
Result string: 2

Query string: Note IC50 for the molecule shown: "Cc1[nH]nc(-c2nc3ccc(C(C)C)cc3[nH]2)c1C(=O)NC1CCN(C)CC1"
Result string: 14

Query string: Note IC50 for the molecule shown: "Cc1[nH]nc(-c2nc3cc(F)c(F)cc3[nH]2)c1C(=O)NC1CCNCC1"
Result string: 508

Query string: Note IC50 for the molecule shown: "Cc1[nH]nc(-c2nc3ccc(C(C)C)cc3[nH]2)c1C(=O)N[C@@H]1CN2CCC1CC2"
Result string: 26

Query string: Note IC50 for the molecule shown: Cc1[nH]nc(-c2nc3ccc(C(=O)NCC(C)c4ccccc4)cc3[nH]2)c1C(=O)NC1CCNCC1 (centres unmarked)
Result string: 3

Query string: Note IC50 for the molecule shown: "Cc1[nH]nc(-c2nc3ccccc3[nH]2)c1C(=O)NCC1CCNCC1"
Result string: 208

Query string: Note IC50 for the molecule shown: Cc1[nH]nc(-c2nc3ccc(C4CC4)cc3[nH]2)c1C(=O)NC1CN2CCC1CC2 (centres unmarked)
Result string: 85

Query string: Note IC50 for the molecule shown: "Cc1[nH]nc(-c2nc3ccc(C(C)(C)C)cc3[nH]2)c1C(=O)N[C@@H]1CN2CCC1CC2"
Result string: 25

Query string: Note IC50 for the molecule shown: Cc1[nH]nc(-c2nc3cc4ccccc4cc3[nH]2)c1C(=O)NCC1CCNC1 (centres unmarked)
Result string: 4

Continuing:
Query string: Note IC50 for the molecule shown: "Cc1[nH]nc(-c2nc3cc4cn[nH]c4cc3[nH]2)c1C(=O)NCC1CCNCC1"
Result string: 94

Query string: Note IC50 for the molecule shown: "Cc1[nH]nc(-c2nc3ccc(-c4cc5ccccc5[nH]4)cc3[nH]2)c1C(=O)NC1CCNCC1"
Result string: 12

Query string: Note IC50 for the molecule shown: Cc1cc2nc(-c3n[nH]c(C)c3C(=O)NC3CCCN(C)C3)[nH]c2cc1C (centres unmarked)
Result string: 77

Query string: Note IC50 for the molecule shown: "Cc1[nH]nc(-c2nc3ccc(C(=O)NC4CCCC4)cc3[nH]2)c1C(=O)NC1CCNCC1"
Result string: 43

Query string: Note IC50 for the molecule shown: "Cc1[nH]nc(-c2nc3ccc(NC(=O)C(C)C)cc3[nH]2)c1C(=O)NC1CCN(C)CC1"
Result string: 6

Query string: Note IC50 for the molecule shown: Cc1cc2nc(-c3n[nH]c(C)c3C(=O)NC3CCCNC3)[nH]c2cc1C (centres unmarked)
Result string: 55

----------
- Measured On: UniProtKB O14757
Readout Name: pIC50
pIC50 field: float, defined as -log10 of concentration (mol/L).

Please review the following examples before continuing.
Query string: Report measured pIC50 on UniProtKB O14757; entry: "Cc1[nH]nc(-c2nc3ccc(C(C)(C)C)cc3[nH]2)c1C(=O)NC1CCNCC1"
Result string: 8.22

Query string: Report measured pIC50 on UniProtKB O14757; entry: "Cc1[nH]nc(-c2nc3ccc(NC(=O)CC(C)C)cc3[nH]2)c1C(=O)NC1CCN(C)CC1"
Result string: 8.52

Continuing:
Query string: Report measured pIC50 on UniProtKB O14757; entry: "Cc1[nH]nc(-c2nc3ccccc3[nH]2)c1C(=O)NC1CCN(Cc2ccccc2)CC1"
Result string: 6.97

----------
- Measured On: CDK-2 enzyme, complexed with cyclin A (Homo sapiens)
- Protocol Details: CDK2 kinase assay (33P peptide phosphorylation)
- Assay Context: 0.1 mM ATP, cyclin A complex
Criterion: IC50 strictly less than 8 µM. Met: Criterion met. Not met: Criterion not met.

Query string: Field: below-cutoff. Rule: recorded IC50 strictly less than 8 µM. Subject: Cc1[nH]nc(-c2nc3ccc(C(F)(F)F)cc3[nH]2)c1C(=O)NCC1CCCNC1 (stereo not drawn)
Result string: Criterion not met

Query string: Field: below-cutoff. Rule: recorded IC50 strictly less than 8 µM. Subject: Cc1[nH]nc(-c2nc3ccc(C(C)C)cc3[nH]2)c1C(=O)NC1CN2CCC1CC2 (stereo not drawn)
Result string: Criterion not met

Query string: Field: below-cutoff. Rule: recorded IC50 strictly less than 8 µM. Subject: Cc1[nH]nc(-c2nc3cc4ccccc4cc3[nH]2)c1C(=O)NCC1CCCNC1 (stereo not drawn)
Result string: Criterion not met

Query string: Field: below-cutoff. Rule: recorded IC50 strictly less than 8 µM. Subject: "Cc1[nH]nc(-c2nc3ccc(C(C)C)cc3[nH]2)c1C(=O)NC1CCN(C)CC1"
Result string: Criterion not met

----------
- Measured On: CDK-2 enzyme, complexed with cyclin A (Homo sapiens, UniProt P24941)
- Protocol Details: CDK2 kinase assay (33P peptide phosphorylation)
- Assay Context: 0.1 mM ATP, cyclin A complex
Readout Name: pIC50
pIC50 field: float, defined as -log10 of concentration (mol/L).

Query string: Note pIC50 for the compound shown: Cc1[nH]nc(-c2nc3cc(F)c(F)cc3[nH]2)c1C(=O)NC1CCNCC1 [Example 13]
Result string: 5.10

Query string: Note pIC50 for the compound shown: Cc1[nH]nc(-c2nc3ccc(C(=O)NC4CCCC4)cc3[nH]2)c1C(=O)NC1CCNCC1 [Example 7]
Result string: 5.03

Now turn to the next compound.
Query string: Note pIC50 for the compound shown: Cc1[nH]nc(-c2nc3ccccc3[nH]2)c1C(=O)NC1CCN(Cc2ccccc2)CC1 [Example 10]
Result string: 4.36

----------
- Measured On: UniProt:P31749
- Sequence (P31749 whole entry, species assumed): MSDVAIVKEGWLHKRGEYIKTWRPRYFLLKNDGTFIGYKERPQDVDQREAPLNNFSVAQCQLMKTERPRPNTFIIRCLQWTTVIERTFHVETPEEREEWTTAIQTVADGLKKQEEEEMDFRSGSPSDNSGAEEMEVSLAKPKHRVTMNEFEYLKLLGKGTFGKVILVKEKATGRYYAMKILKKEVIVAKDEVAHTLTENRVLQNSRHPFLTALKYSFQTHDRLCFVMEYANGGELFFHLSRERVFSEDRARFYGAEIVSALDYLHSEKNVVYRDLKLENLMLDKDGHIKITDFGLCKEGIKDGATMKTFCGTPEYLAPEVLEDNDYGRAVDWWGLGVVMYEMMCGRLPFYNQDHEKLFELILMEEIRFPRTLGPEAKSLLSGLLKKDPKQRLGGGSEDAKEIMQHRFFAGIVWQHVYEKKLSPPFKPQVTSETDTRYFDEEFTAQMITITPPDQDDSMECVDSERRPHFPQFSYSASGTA
# reported IC50; entries follow

Query string: Report measured IC50 on UniProt:P31749; entry: "Cc1[nH]nc(-c2nc3ccccc3[nH]2)c1C(=O)NCCCCN"
Result string: > 50 µM

Query string: Report measured IC50 on UniProt:P31749; entry: "Cc1[nH]nc(-c2nc3cc4ccccc4cc3[nH]2)c1C(=O)NC1CCNCC1"
Result string: > 50 µM

Now turn to the next compound.
Query string: Report measured IC50 on UniProt:P31749; entry: "Cc1[nH]nc(-c2nc3cc4cn[nH]c4cc3[nH]2)c1C(=O)NC1CCNCC1"
Result string: 26.8 µM

----------
- Measured On: PKA (Homo sapiens, UniProt P17612)
Readout Name: IC50
Please answer in the form of a number followed by its unit of measurement.

Please review the following examples before continuing.
Query string: Report measured IC50 on PKA (Homo sapiens, UniProt P17612); entry: "Cc1[nH]nc(-c2nc3ccc(C(=O)NC4CCCC4)cc3[nH]2)c1C(=O)NC1CCNCC1"
Result string: 12.6 µM

Query string: Report measured IC50 on PKA (Homo sapiens, UniProt P17612); entry: "Cc1[nH]nc(-c2nc3cc4cn[nH]c4cc3[nH]2)c1C(=O)NC1CCNCC1"
Result string: 7.2 µM

Query string: Report measured IC50 on PKA (Homo sapiens, UniProt P17612); entry: "Cc1[nH]nc(-c2nc3ccc(C(C)(C)C)cc3[nH]2)c1C(=O)NC1CCNCC1"
Result string: 4.95 µM

Query string: Report measured IC50 on PKA (Homo sapiens, UniProt P17612); entry: "Cc1[nH]nc(-c2nc3ccccc3[nH]2)c1C(=O)NC1CCN(Cc2ccccc2)CC1"
Result string: 29.1 µM

Query string: Report measured IC50 on PKA (Homo sapiens, UniProt P17612); entry: "Cc1[nH]nc(-c2nc3c(F)c(F)ccc3[nH]2)c1C(=O)NC1CCNCC1"
Result string: 20.9 µM

Continuing:
Query string: Report measured IC50 on PKA (Homo sapiens, UniProt P17612); entry: Cc1[nH]nc(-c2nc3ccc(C(=O)NCC(O)c4ccccc4)cc3[nH]2)c1C(=O)NC1CCNCC1 (centres unmarked)
Result string: 5.31 µM

Query string: Report measured IC50 on PKA (Homo sapiens, UniProt P17612); entry: "Cc1[nH]nc(-c2nc3ccc(C(F)(F)F)cc3[nH]2)c1C(=O)NC1CCNCC1"
Result string: 16.9 µM

Query string: Report measured IC50 on PKA (Homo sapiens, UniProt P17612); entry: "Cc1[nH]nc(-c2nc3ccccc3[nH]2)c1C(=O)NCC1CCNCC1"
Result string: 7.51 µM

----------
- Measured On: PDK1 (Homo sapiens)
- Sequence (O15530 1-556): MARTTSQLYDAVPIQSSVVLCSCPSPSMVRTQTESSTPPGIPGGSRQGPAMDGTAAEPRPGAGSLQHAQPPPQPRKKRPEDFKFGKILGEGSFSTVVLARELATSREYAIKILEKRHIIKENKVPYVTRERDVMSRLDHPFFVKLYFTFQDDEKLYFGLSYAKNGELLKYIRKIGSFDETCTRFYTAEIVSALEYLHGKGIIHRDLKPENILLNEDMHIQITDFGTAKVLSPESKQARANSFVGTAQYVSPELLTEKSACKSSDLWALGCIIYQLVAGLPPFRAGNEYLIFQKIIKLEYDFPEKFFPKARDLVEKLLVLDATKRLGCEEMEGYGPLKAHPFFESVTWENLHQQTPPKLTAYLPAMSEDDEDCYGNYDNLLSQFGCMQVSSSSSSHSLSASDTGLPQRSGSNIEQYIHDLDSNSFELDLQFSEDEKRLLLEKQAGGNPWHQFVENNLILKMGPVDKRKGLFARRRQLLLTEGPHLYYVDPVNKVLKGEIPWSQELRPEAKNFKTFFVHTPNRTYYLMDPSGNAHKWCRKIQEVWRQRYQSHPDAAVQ
Readout Name: pIC50
pIC50 field: float, defined as -log10 of concentration (mol/L).

Query string: Note pIC50 for the compound shown: Cc1[nH]nc(-c2nc3ccccc3[nH]2)c1C(=O)NC1CCN(Cc2ccccc2)CC1 [Example 10]
Result string: 6.36

Query string: Note pIC50 for the compound shown: Cc1[nH]nc(-c2nc3ccc(C(=O)NCC(O)c4ccccc4)cc3[nH]2)c1C(=O)NC1CCNCC1 (centres unmarked) [Example 35]
Result string: 7.24

Query string: Note pIC50 for the compound shown: Cc1[nH]nc(-c2nc3ccc(C(=O)NC4CCCC4)cc3[nH]2)c1C(=O)NC1CCNCC1 [Example 7]
Result string: 7.15

Continuing:
Query string: Note pIC50 for the compound shown: Cc1[nH]nc(-c2nc3c(F)c(F)ccc3[nH]2)c1C(=O)NC1CCNCC1 [Example 12]
Result string: 6.31

Query string: Note pIC50 for the compound shown: Cc1[nH]nc(-c2nc3cc4cn[nH]c4cc3[nH]2)c1C(=O)NC1CCNCC1 [Example 14]
Result string: 8.00

Query string: Note pIC50 for the compound shown: Cc1[nH]nc(-c2nc3ccc(C(C)(C)C)cc3[nH]2)c1C(=O)NC1CCNCC1 [Example 37]
Result string: 7.31

Query string: Note pIC50 for the compound shown: Cc1[nH]nc(-c2nc3ccc(C4CC4)cc3[nH]2)c1C(=O)NC1CCNCC1 [Example 40]
Result string: 7.70

Query string: Note pIC50 for the compound shown: Cc1[nH]nc(-c2nc3cc(Cl)c(C(C)C)cc3[nH]2)c1C(=O)NC1CCNCC1 [Example 45]
Result string: 7.89
